Reference source for all entries: PubChem BioAssay

# ASSAY NAME: yeast transport mutant growth inhibition pilot in 384-well plates, post-Golgi transport modulator project (AID 636); also: test concentration not given here
# CONDITION: absorbance 615 nm, about 18 h, active compounds read high
Each entry below lists one item and its recorded inhibition value.
# output: bare number, implied unit %

COMPOUND	OUTPUT UNIT	inhibition
O=C(c1cccs1)N1CCc2ccccc21	%	-5.47

Enquiry: Which inhibition value belongs to O=C(NCC1CCCO1)C1CCN(S(=O)(=O)c2cccc3cccnc23)CC1 (stereo unspecified) ?
Return: -2.53

Enquiry: // repeat for CCN(CC)c1ccc(NC(=O)CN2C(=O)CC(C)(C)S(=O)(=O)c3ccccc32)c(C)c1 and report
Return: -4.8

Enquiry: // repeat for CCOc1ccccc1NC(=O)CC1Nc2cc(C)c(C)cc2NC1=O (stereo unspecified) and report
Return: -1.67

Enquiry: // repeat for Cc1ccc(-c2nc3cnccn3c2Nc2ccc3c(c2)OCO3)o1 and report
Return: -6.53

Enquiry: // repeat for COc1cccc(/C=N/n2cnnc2)c1OCc1ccccc1 and report
Return: 0

Enquiry: // repeat for Cc1ccccc1Cn1nc(C)c(NC(=O)c2noc3c2CCc2ccccc2-3)c1C and report
Return: 5.77

Enquiry: // repeat for O=C(Nc1ccncc1)c1cc2ccccc2o1 and report
Return: -0.4
